System: dCK-C3S-S74E
Sequence (P27707 whole entry S74E, form open): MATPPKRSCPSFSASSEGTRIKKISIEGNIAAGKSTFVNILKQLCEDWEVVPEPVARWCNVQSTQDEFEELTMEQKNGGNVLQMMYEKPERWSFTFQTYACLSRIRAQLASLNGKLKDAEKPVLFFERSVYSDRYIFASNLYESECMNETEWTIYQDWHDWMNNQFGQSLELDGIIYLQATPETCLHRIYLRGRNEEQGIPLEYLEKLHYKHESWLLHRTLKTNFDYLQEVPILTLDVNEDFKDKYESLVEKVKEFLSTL
assay-procedure: Enzymatic assay (PK/LDH coupled), dC phosphorylation by dCK in the presence of ATP
Format: biochemical, human
condition-summary: 5 µM
readout-kind: Enzymatic activity (ATP) Mean (% activity) (%)
State the answer as a number, implicitly in %.

Use the examples below as a reference point.
Cc1ccc(NC(=O)c2ccc(CN3CCN(C)CC3)cc2)cc1Nc1nc(-c2nccc(N)n2)cs1
30.3
CCCN(c1nc(-c2nc(N)cc(N)n2)cs1)c1cc(-c2ccc(CCN3CCN(C)CC3)cc2)ccc1C
-8.7
CCCN(c1nc(-c2nc(N)cc(N)n2)cs1)c1cc(-c2ccc(CCN3CCN(C)CC3)nc2)ccc1C
4.8
Cc1ccc(-c2ccc(CN3CCN(C)CC3)cc2)cc1Nc1nc(-c2nccc(N)n2)cs1
11.8
CCCN(c1nc(-c2nccc(N)n2)cs1)c1cc(-c2ccc(CCN3CCN(C)CC3)cc2)ccc1C
-2.1

compound Cc1ccc(-c2ccc(CCN3CCN(C)CC3)cc2)cc1Nc1nc(-c2nccc(N)n2)cs1 , Enzymatic activity (ATP) Mean (% activity) observed: 12.3

Record summary for Cc1ccc(NC(=O)c2ccc(CN3CCN(C)CC3)cc2)cc1Nc1nc(-c2nc(N)cc(N)n2)cs1 : reported Enzymatic activity (ATP) Mean (% activity) = 3.9

###

Test system: dCK-C3S-S74E
assay-procedure: Thermal shift assay (TSA)
condition-summary: mean ± SD
readout-kind: THERMAL SHIFT ASSAY +Tm (°)
Form entry: value (°) — number only.

Past entries and their recorded results:
CCCN(c1nc(-c2nc(N)cc(N)n2)cs1)c1cc(-c2ccc(S(=O)(=O)N3CCC(N)CC3)cc2)ccc1C
22.3
CCCN(c1nc(-c2nc(N)cc(N)n2)cs1)c1cc(-c2ccc(S(=O)(=O)N3CCN(C)CC3)cc2C(F)(F)F)ccc1C
22.2

The reported THERMAL SHIFT ASSAY +Tm (°) of the molecule CCCN(c1nc(-c2nc(N)cc(N)n2)cs1)c1cc(-c2ccc(S(=O)(=O)N3CCOCC3)cc2)ccc1C was 18.3

Reported THERMAL SHIFT ASSAY +Tm (°) ( CCCN(c1nc(-c2nc(N)cc(N)n2)cs1)c1cc(-c2ccc(S(=O)(=O)N3CCNCC3)cc2)ccc1C ) = 20.7

###

System: dCK-C3S-S74E
assay-procedure: Thermal shift assay (TSA)
condition-summary: 5 μM protein, 50 μM compound
Note to self: ΔTm, dCK thermal stabilization (TSA) under 20 °C means 1 (yes), ties and anything higher get 0 (no).

Previously resolved entries follow.
CCCN(c1nc(-c2nc(N)cc(N)n2)cs1)c1cc(-c2ccc(S(=O)(=O)N3CCN(C)CC3)cc2C(F)(F)F)ccc1C [OR0642]
0 (no)
Cc1ccc(-c2ccc(CCN3CCN(C)CC3)cc2)cc1Nc1nc(-c2nccc(N)n2)cs1 [OR0325]
1 (yes)
Cc1ccc(NC(=O)c2ccc(CN3CCN(C)CC3)cc2)cc1Nc1nc(-c2nc(N)cc(N)n2)cs1 [dCKi2]
1 (yes)
CCCN(c1nc(-c2nccc(N)n2)cs1)c1cc(-c2ccc(CCN3CCN(C)CC3)cc2)ccc1C [OR0345]
1 (yes)

Bench note: check whether Cc1ccc(-c2ccc(CN3CCN(C)CC3)cc2)cc1Nc1nc(-c2nccc(N)n2)cs1 [OR0274] shows ΔTm, dCK thermal stabilization (TSA) below 20 °C
1 (yes)

Lab note: confirm whether the reported ΔTm, dCK thermal stabilization (TSA) for this molecule is below 20 °C, equality not counting. molecule: Cc1ccc(NC(=O)c2ccc(CN3CCN(C)CC3)cc2)cc1Nc1nc(-c2nccc(N)n2)cs1 [dCKi1]
1 (yes)

###

assay-target: dCK-C3S-S74E (Homo sapiens, UniProt P27707, form not given/S74E)
Sequence (P27707 whole entry S74E, form open): as above
assay-procedure: Enzymatic assay (PK/LDH coupled), dC phosphorylation by dCK in the presence of ATP
Format: biochemical
condition-summary: read-out: ENZYMATIC ASSAY IC50; presence of ATP, [dCK] = 100 nM
readout-kind: IC50
Write the numeric value and follow it with the unit.

Summary for this compound, CCCN(c1nc(-c2nccc(N)n2)cs1)c1cc(-c2ccc(OCC(=O)N3CCN(C)CC3)cc2)ccc1C : IC50 is 349 nM

###

Test system: CCRF-CEM cell line
assay-procedure: dCK cellular assay: CCRF-CEM proliferation in the presence of dT and dC
Type: cell-based, human
condition-summary: Homo sapiens, read-out: dCK CELLULAR ASSAY IC50 (nM); CCRF-CEM, 200 µM dT and 1 µM dC; read-out: dCK […] ASSAY IC50
Define the label as rule met when IC50 is strictly less than 9000 nM and as rule not met in all remaining cases.

Consider the worked cases shown below.
COc1cc(-c2ccc(C)c(Nc3nc(-c4nccc(N)n4)cs3)c2)ccc1O [OR0321]
rule met
Cc1ccc(NC(=O)c2ccc(CN(C)C)cc2)cc1Nc1nc(-c2nccc(N)n2)cs1 [OR0155]
rule not met
Cc1ccc(NC(=O)c2ccc(CN3CCN(C)CC3)cc2)cc1Nc1nc(-c2ncc(F)c(N)n2)cs1 [OR0239]
rule not met
CCCN(c1nc(-c2nc(N)cc(N)n2)cs1)c1cc(-c2ccc(S(=O)(=O)N3CCN(C)CC3)cc2OC)ccc1C [OR0645]
rule met
CCCN(c1nc(-c2nccc(N)n2)cs1)c1cc(NC(=O)c2ccc(CN3CCN(C)CC3)cc2)ccc1C [OR0105]
rule met

A record lists Cc1ccc(-c2ccc(O)cc2)cc1Nc1nc(-c2nccc(N)n2)cs1 [OR0320] . Is its IC50 below 9000 nM?
rule met

###

assay-procedure: Plasma pharmacokinetics after IP administration
Assay type: in vivo
condition-summary: male, Swiss, mouse, mice, dose 20 mg/Kg
readout-kind: Tmax (h)
Express it in h; write the number only.

CCCN(c1nc(-c2nc(N)cc(N)n2)cs1)c1cc(-c2ccc(S(=O)(=O)N3CCN(C)CC3)cc2C(F)(F)F)ccc1C [OR0642]
2

Field Tmax (entry CCCN(c1nc(-c2nc(N)cc(N)n2)cs1)c1cc(-c2ccc(S(=O)(=O)N3CCN(C)CC3)cc2)ccc1C [OR0624] ) reads 1

###

assay-procedure: Plasma pharmacokinetics after IP administration
Assay type: in vivo
condition-summary: male, Swiss, mouse, mice, dose 10 mg/Kg, read-out: T ½ (converted)
readout-kind: half-life (h)
Respond with the bare value in h.

The compound listed as CCCN(c1nc(-c2nc(N)cc(N)n2)cs1)c1cc(-c2ccc(CCN3CCN(C)CC3)nc2)ccc1C has a reported half-life of 2

###

assay-target: dCK-C3S-S74E
assay-procedure: Enzymatic assay (PK/LDH coupled), dC phosphorylation by dCK in the presence of ATP
Assay type: biochemical, human
condition-summary: presence of ATP, [dCK] = 100 nM; read-out: ENZYMATIC ASSAY IC50
Procedure: For enzymatic assays, cells were re-suspended in 20 mM TRIS, pH 8 500 mM NaCl, 0.1% BRIJ-35 and 5% glycerol buffer and one EDTA free anti-protease tablet was added (Roche). […] Kinetic analyses were performed using a spectrophotometric continuous enzymatic-coupled assay using pyruvate kinase (PK) and lactate dehydrogenase (LDH). […] All measurements were performed on a microplate reader Pherastar FS (BMG Labtech). […]
readout-kind: IC50 (nM)
Could you give me the number in nM? Just the number is fine.

Record excerpt, results attached:
Cc1ccc(-c2ccc(CCN3CCN(C)CC3)cc2)cc1Nc1nc(-c2nccc(N)n2)cs1 [OR0325]
826
Cc1ccc(NC(=O)c2ccc(CN(C)C)cc2)cc1Nc1nc(-c2nccc(N)n2)cs1 [OR0155]
7780
Cc1ccc(NC(=O)c2ccc(CN3CCN(C)CC3)cc2)cc1Nc1nc(-c2nc(N)cc(N)n2)cs1 [dCKi2]
903
CCCN(c1nc(-c2nccc(N)n2)cs1)c1cc(NC(=O)c2ccc(CN3CCN(C)CC3)cc2)ccc1C [OR0105]
2140
Cc1ccc(NC(=O)c2ccc(CN3CC4(CN(C)C4)C3)cc2)cc1Nc1nc(-c2nccc(N)n2)cs1 [OR0156]
6380

--- query ---
Consider Cc1ccc(-c2ccc(CCCN3CCN(C)CC3)cc2)cc1Nc1nc(-c2nccc(N)n2)cs1 [OR0331] . Its measured IC50 is 401

###

assay-procedure: Acute in vivo toxicity, unique IP injection
condition-summary: male, mouse, in vivo; Swiss mice, IP, unique injection; read-out: Maximum tolerated dose
Below is a list of entries, each paired with its recorded MTD at 72 h value.
Field: numeric (mg/kg). Do not append units.

CCCN(c1nc(-c2nc(N)cc(N)n2)cs1)c1cc(-c2ccc(S(=O)(=O)N3CCN(C)CC3)cc2)ccc1C [OR0624]
20

Next item in the queue.
The value of MTD at 72 h measured for the compound CCCN(c1nc(-c2nc(N)cc(N)n2)cs1)c1cc(-c2ccc(CCN3CCN(C)CC3)nc2)ccc1C [OR0602] turned out to be 10
